The origin of these recorded values is patent US11149036B2.

- tgt: human M4 muscarinic acetylcholine receptor (Homo sapiens, UniProt P08173)
- protocol_details: human FLIPR-based M4 PAM assay (CHO-K1 cells with human M4 receptor and Gaqi5, calcium dye fluorescence)
- measurement_conditions: inflection point (IP) of dose response curve, acetylcholine added at 20% of maximum response, read-out: M4 FLIPPR Hu IP
quantity_measured: EC50 (nM)

Cc1ccc(-c2cnn(CC3CCC(F)(F)C3)c2)c(-c2ccc3cccnc3c2)n1 (single isomer, unassigned) [Example 129] = 22

P. Cc1ccc(-c2cnn(C[C@H]3CC[C@@H](F)C3)c2)c(-c2ccc3cccnc3c2)n1 (single isomer, unassigned)
Q. Fc1cnc(-c2ccc3cccnc3c2)c(-c2cnn(CC3(F)CCCC3)c2)c1
R. Cc1cnc(-c2ccn3ccnc3c2)c(-c2cnn(CC3(C)CCCC3)c2)c1
S. CCc1cn2ccc(-c3nc(C#N)ccc3-c3cnn(CC4(F)CCCC4)c3)cc2n1
Query :: Order the items by recorded EC50; the first position goes to the largest value. Use the labels to give the requested order.
Result :: Q, R, P, S

* * *

- tgt: UniProt:P08173
- Sequence (P08173 1-479): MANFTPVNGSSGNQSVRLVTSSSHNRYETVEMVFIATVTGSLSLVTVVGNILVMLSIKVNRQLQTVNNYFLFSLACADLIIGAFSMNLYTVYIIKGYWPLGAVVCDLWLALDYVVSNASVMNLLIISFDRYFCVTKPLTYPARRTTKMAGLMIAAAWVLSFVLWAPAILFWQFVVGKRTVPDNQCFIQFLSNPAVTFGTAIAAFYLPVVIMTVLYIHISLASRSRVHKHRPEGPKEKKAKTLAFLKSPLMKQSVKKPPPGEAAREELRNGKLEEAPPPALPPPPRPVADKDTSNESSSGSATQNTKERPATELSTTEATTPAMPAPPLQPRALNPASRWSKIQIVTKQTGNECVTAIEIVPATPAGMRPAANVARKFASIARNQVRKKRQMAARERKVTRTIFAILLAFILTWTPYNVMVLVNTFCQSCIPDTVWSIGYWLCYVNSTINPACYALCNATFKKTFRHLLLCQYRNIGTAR
- protocol_details: human FLIPR-based M4 PAM assay (CHO-K1 cells with human M4 receptor and Gaqi5, calcium dye fluorescence)
- measurement_conditions: inflection point (IP) of dose response curve, acetylcholine added at 20% of maximum response, read-out: M4 FLIPPR Hu IP
pEC50: −log10 of the molar value.
quantity_measured: pEC50

CCc1nc2cc(-c3nc(C#N)ccc3-c3cnn(CC4(F)CCCC4)c3)ccn2n1 [Example 65] = 7.55
N#Cc1ccc(-c2cnn(CC3(F)CCCC3)c2)c(-c2ccn3ccnc3c2)n1 [Example 50] = 7.57
COc1nc(-c2ccn3cc(C)nc3c2)c(-c2cnn(CC3(F)CCCC3)c2)cc1F [Example 114] = 6.85
Cn1cc2ccc(-c3nc(C#N)ccc3-c3cnn(CC4(F)CCCC4)c3)cc2n1 [Example 48] = 7.39
COc1cc2ccc(-c3nc(C)c(C)cc3-c3cnn(CC4(C)CCCC4)c3)cc2nn1 [Example 157] = 8.15

I. Cn1ccc2ccc(-c3nc(C#N)ccc3-c3cnn(CC4CCCC4)c3)cc2c1=O [Example 39]
II. CC1(Cn2cc(-c3ccc(C#N)nc3-c3ccn4nc(CF)nc4c3)cn2)CCCC1 [Example 78]
III. COc1cc2ccc(-c3nc(C)ccc3-c3cnn(CC4(C)CCC(=O)C4)c3)cc2nn1 (single isomer, unassigned) [Example 148]
Query :: Order the items by recorded pEC50; the first position goes to the largest value. Use the labels to give the requested order.
Result :: II, III, I
